Numbers sourced from patent US20160120979A1.

For each of the compounds below, state its difference in absorption values (595-600 nm) between t4 and t3.
- System: PA01 Pseudamonas aeruginosa MultiR genetically modified bacteria
- ASSAY PROTOCOL: Experiment 8: growth of PA01 after pulsed 400 nm photo-activation of antibiotics
- Type: cell-based
- SETUP CONDITIONS: D: control no pulse; antibiotic concentration per the 12th table
- Protocol: In Experiments 7 to 9 the effect of some exemplary photo-activated antibiotics is tested on two different multi resistant bacterial strains: In Experiment 8 and 9 PA01 Pseudamonas aeruginosa MultiR genetically modified bacteria were tested. This PA01 strain is genetically modified with a quinolone pump and conferring resistance to antibiotics of the quinolone group of antibiotics. […] The absorbance value correlates to the colloidal effect and the number of bacteria in the sample. […]

Data request: Requested read-out: difference in absorption values (595-600 nm) between t4 and t3. Entry: C[C@H]1c2cccc(O)c2C(=O)C2=C(O)[C@]3(O)C(=O)C(C(N)=O)=C(O)[C@@H](N(C)C)[C@@H]3[C@@H](O)[C@@H]21 [Doxycycline]
Data returned: 0.0735

Data request: Requested read-out: difference in absorption values (595-600 nm) between t4 and t3. Entry: CC[C@H]1OC(=O)[C@H](C)[C@@H](O[C@H]2C[C@@](C)(OC)[C@@H](O)[C@H](C)O2)[C@H](C)[C@@H](O[C@@H]2O[C@H](C)C[C@H](N(C)C)[C@H]2O)[C@](C)(OC)C[C@@H](C)C(=O)[C@H](C)[C@@H](O)[C@]1(C)O [Clarithromycin]
Data returned: 0.1041

Data request: Requested read-out: difference in absorption values (595-600 nm) between t4 and t3. Entry: CO[C@H]1/C=C/O[C@@]2(C)Oc3c(C)c(O)c4c(O)c(c(/C=N/N5CCN(C)CC5)c(O)c4c3C2=O)NC(=O)/C(C)=C\C=C\[C@H](C)[C@H](O)[C@@H](C)[C@@H](O)[C@@H](C)[C@H](OC(C)=O)[C@@H]1C [Rifampicin]
Data returned: 0.0679

Data request: Requested read-out: difference in absorption values (595-600 nm) between t4 and t3. Entry: CCn1cc(C(=O)O)c(=O)c2cc(F)c(N3CCNCC3)cc21 [Norfloxacin]
Data returned: 0.0039

---

- System: PA01 Pseudamonas aeruginosa MultiR genetically modified bacteria
- ASSAY PROTOCOL: Experiment 8: growth of PA01 after pulsed 400 nm photo-activation of antibiotics
- Type: cell-based
- SETUP CONDITIONS: G: 400 nm LED pulse ON 5 ms energy 0.05 J, OFF 45 ms during 10 minutes; antibiotic concentration per the 12th table
PROPERTY: difference in absorption values (595-600 nm) between t4 and t3
Write the value as a bare number.

Data request: Requested read-out: difference in absorption values (595-600 nm) between t4 and t3. Entry: C[C@H]1c2cccc(O)c2C(=O)C2=C(O)[C@]3(O)C(=O)C(C(N)=O)=C(O)[C@@H](N(C)C)[C@@H]3[C@@H](O)[C@@H]21
Data returned: 0.0181

Data request: Requested read-out: difference in absorption values (595-600 nm) between t4 and t3. Entry: CC[C@H]1OC(=O)[C@H](C)[C@@H](O[C@H]2C[C@@](C)(OC)[C@@H](O)[C@H](C)O2)[C@H](C)[C@@H](O[C@@H]2O[C@H](C)C[C@H](N(C)C)[C@H]2O)[C@](C)(OC)C[C@@H](C)C(=O)[C@H](C)[C@@H](O)[C@]1(C)O
Data returned: −0.0396

Data request: Requested read-out: difference in absorption values (595-600 nm) between t4 and t3. Entry: CCn1cc(C(=O)O)c(=O)c2cc(F)c(N3CCNCC3)cc21
Data returned: −0.1879

Data request: Requested read-out: difference in absorption values (595-600 nm) between t4 and t3. Entry: CO[C@H]1/C=C/O[C@@]2(C)Oc3c(C)c(O)c4c(O)c(c(/C=N/N5CCN(C)CC5)c(O)c4c3C2=O)NC(=O)/C(C)=C\C=C\[C@H](C)[C@H](O)[C@@H](C)[C@@H](O)[C@@H](C)[C@H](OC(C)=O)[C@@H]1C
Data returned: −0.0678
